- TGT: INaL v1.6 (late sodium current, HEK-293 cells expressing recombinant sodium channels) (Homo sapiens)
- Construct: expressed in transfected cells; host or cells: HEK-293
- PROTOCOL_DESCRIPTION: Inhibition of ATX-II evoked Nav late current (INaL), PatchXpress electrophysiology
- Format: cell-based
- PARTICULARS: HEK293, compound at 1 μM, late current evoked by ATX-II 300 nM
- Method: Functional characterization of exemplary compounds to modulate voltage gated sodium currents was accomplished using the PatchXpress™ high throughput electrophysiology platforms (Molecular Devices, Sunnyvale, CA). […] Late current amplitude and stability were determined by analyzing the mean current amplitude over the 175-195 msec region of the 200 msec test pulse. […] Late current amplitudes for each test condition were determined from the mean of the 175-195 msec region of the 200 msec test pulse. […]
Provide the recorded inhibition at 1 µM for the entries that follow.

Consider the reported inhibition at 1 µM for these compounds:
>  <COMPOUND>
CC(C)(Oc1ncc(-c2ccc3nnc(C(F)(F)F)n3n2)cc1F)C(F)(F)F [Compound 34]

>  <inhibition at 1 µM>
> 75%

$$$$
>  <COMPOUND>
Fc1cc(-c2cn3c(C(F)F)nnc3cn2)cnc1OCC1CC1(F)F (single isomer, unassigned) [30 (Isomer 1)]

>  <inhibition at 1 µM>
< 50%

$$$$

Consider now this further compound.
Any idea what its inhibition at 1 µM is? The compound is Fc1cc(-c2ccc3nnc(C(F)F)n3n2)cnc1OCC1CC1(F)F (stereo not drawn) [Compound 22]
< 50%

---

For each of the compounds below, state its inhibition at 1 µM.
- TGT: INaL v1.6 (late sodium current, HEK-293 cells expressing recombinant sodium channels) (Homo sapiens, UniProt Q9UQD0)
- Construct: expressed in transfected cells; host or cells: HEK-293
- Sequence (Q9UQD0 whole entry): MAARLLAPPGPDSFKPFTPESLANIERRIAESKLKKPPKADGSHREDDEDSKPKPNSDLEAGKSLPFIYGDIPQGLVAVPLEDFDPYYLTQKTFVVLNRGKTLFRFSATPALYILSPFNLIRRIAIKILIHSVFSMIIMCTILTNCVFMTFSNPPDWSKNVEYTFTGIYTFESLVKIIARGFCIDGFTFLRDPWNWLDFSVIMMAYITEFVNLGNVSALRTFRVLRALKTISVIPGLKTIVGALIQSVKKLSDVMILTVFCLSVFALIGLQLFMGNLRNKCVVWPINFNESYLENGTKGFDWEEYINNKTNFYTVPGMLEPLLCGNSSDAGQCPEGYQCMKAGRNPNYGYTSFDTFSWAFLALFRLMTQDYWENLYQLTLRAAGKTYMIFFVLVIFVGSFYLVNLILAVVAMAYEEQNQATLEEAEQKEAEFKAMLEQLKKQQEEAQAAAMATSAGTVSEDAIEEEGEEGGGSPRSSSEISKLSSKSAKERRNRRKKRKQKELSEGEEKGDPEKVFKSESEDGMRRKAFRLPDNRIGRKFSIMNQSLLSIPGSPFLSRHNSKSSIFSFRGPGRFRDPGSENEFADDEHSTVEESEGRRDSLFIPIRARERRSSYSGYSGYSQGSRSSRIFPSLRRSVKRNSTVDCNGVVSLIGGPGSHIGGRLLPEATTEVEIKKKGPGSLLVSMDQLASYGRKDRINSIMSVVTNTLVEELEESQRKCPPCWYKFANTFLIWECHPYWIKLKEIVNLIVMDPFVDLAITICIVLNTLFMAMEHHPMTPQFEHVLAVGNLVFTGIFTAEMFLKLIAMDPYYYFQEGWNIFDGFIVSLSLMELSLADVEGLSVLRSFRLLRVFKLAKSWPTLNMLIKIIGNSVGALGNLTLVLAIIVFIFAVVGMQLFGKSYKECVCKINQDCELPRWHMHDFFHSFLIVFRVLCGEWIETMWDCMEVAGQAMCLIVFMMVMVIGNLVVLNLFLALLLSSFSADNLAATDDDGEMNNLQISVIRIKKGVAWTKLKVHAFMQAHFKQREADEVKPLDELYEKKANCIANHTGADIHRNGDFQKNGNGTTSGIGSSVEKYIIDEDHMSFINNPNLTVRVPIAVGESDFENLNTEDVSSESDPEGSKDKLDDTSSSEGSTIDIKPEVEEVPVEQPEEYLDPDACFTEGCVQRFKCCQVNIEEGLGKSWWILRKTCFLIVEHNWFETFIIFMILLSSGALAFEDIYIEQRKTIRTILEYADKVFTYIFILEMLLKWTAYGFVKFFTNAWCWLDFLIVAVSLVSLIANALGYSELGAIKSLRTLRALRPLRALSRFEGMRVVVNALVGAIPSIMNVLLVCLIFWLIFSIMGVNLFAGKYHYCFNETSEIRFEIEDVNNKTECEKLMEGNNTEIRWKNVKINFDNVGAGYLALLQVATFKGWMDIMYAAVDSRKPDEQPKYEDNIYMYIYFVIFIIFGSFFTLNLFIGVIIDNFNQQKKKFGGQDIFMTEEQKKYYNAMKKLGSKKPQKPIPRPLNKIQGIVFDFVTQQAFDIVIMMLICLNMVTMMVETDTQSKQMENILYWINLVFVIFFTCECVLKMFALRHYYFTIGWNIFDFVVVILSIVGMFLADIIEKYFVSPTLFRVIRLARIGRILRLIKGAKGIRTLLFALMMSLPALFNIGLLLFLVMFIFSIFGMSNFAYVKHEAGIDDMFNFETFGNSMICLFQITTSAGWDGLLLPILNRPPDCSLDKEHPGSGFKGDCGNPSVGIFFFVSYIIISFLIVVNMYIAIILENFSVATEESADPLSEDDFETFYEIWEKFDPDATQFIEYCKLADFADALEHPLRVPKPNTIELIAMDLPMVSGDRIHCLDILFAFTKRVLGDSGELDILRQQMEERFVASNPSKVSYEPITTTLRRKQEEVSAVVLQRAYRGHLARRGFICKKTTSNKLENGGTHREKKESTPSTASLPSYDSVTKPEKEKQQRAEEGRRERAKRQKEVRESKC
- PROTOCOL_DESCRIPTION: Inhibition of ATX-II evoked Nav late current (INaL), PatchXpress electrophysiology
- Assay type: cell-based
- PARTICULARS: HEK293, compound at 1 μM, late current evoked by ATX-II 300 nM

>  <COMPOUND>
C[C@H](Oc1ncc(-c2nn3c(C(F)(F)F)nnc3cc2Cl)cc1F)C(F)(F)F [Compound 43]

>  <inhibition at 1 µM>
50 to 75%

$$$$
>  <COMPOUND>
C[C@@H](Oc1ncc(-c2cn3c(C4CC(F)(F)C4)nnc3cn2)cc1F)C(F)(F)F [Compound 20]

>  <inhibition at 1 µM>
< 50%

$$$$
>  <COMPOUND>
C[C@@H](Oc1ccc(-c2nn3c(C(F)(F)F)nnc3cc2Cl)cn1)C(F)(F)F [Compound 47]

>  <inhibition at 1 µM>
50 to 75%

$$$$
>  <COMPOUND>
Fc1cc(-c2ccc3nnc(C(F)(F)F)n3n2)cnc1OCC1CC1(F)F (single isomer, unassigned) [23 (Isomer 1)]

>  <inhibition at 1 µM>
50 to 75%

$$$$
>  <COMPOUND>
C[C@H](Oc1ccc(-c2nn3c(C(F)(F)F)nnc3cc2Cl)cn1)C(F)(F)F [Compound 46]

>  <inhibition at 1 µM>
> 75%

$$$$

Report inhibition at 1 µM for each item below.
1. Cc1cc2nnc(C(F)(F)F)n2nc1-c1cnc(OC(C)(C)C(F)(F)F)c(F)c1 [Compound 40]
2. Fc1cc(-c2cn3c(C(F)F)nnc3cn2)cnc1OCC1CC1(F)F (stereo not shown) [Compound 31]

["> 75%", "< 50%"]

---

Please respond with reported inhibition at 1 µM for every item in the list.
- TGT: INaL v1.6 (late sodium current, HEK-293 cells expressing recombinant sodium channels) (Homo sapiens, UniProt Q9UQD0)
- Construct: expressed in transfected cells; host or cells: HEK-293
- PROTOCOL_DESCRIPTION: Inhibition of ATX-II evoked Nav late current (INaL), PatchXpress electrophysiology
- Assay type: cell-based
- PARTICULARS: HEK293, compound at 1 μM, late current evoked by ATX-II 300 nM

>  <COMPOUND>
Fc1cc(-c2cn3c(C(F)(F)F)nnc3cn2)cnc1OC1(C(F)(F)F)CCC1

>  <inhibition at 1 µM>
> 75%

$$$$
>  <COMPOUND>
CC(C)(Oc1ncc(-c2nn3c(C(F)(F)F)nnc3cc2Cl)cc1F)C(F)(F)F

>  <inhibition at 1 µM>
> 75%

$$$$
>  <COMPOUND>
Cc1cc2nnc(C(F)(F)F)n2nc1-c1cnc(O[C@@H](C)C(F)(F)F)c(F)c1

>  <inhibition at 1 µM>
> 75%

$$$$
>  <COMPOUND>
Fc1cc(-c2cn3c(C(F)(F)F)nnc3cn2)cnc1OC1(C(F)(F)F)COC1

>  <inhibition at 1 µM>
< 50%

$$$$
>  <COMPOUND>
Fc1cc(-c2ccc3nnc(C(F)(F)F)n3n2)cnc1OC1CC(F)(F)C1(F)F (single isomer, unassigned) [25 (Isomer 1)]

>  <inhibition at 1 µM>
> 75%

$$$$
>  <COMPOUND>
CC(C)(Oc1ncc(-c2cn3c(C(F)F)nnc3cn2)cc1F)C(F)(F)F

>  <inhibition at 1 µM>
> 75%

$$$$
>  <COMPOUND>
CC(C)(Oc1ncc(-c2cn3c(C4CC4(F)F)nnc3cn2)cc1F)C(F)(F)F (single isomer, unassigned) [13 (Isomer 1)]

>  <inhibition at 1 µM>
< 50%

$$$$
>  <COMPOUND>
Fc1cc(-c2ccc3nnc(C(F)(F)F)n3n2)cnc1OC1(C(F)(F)F)COC1

>  <inhibition at 1 µM>
50 to 75%

$$$$

I would be grateful if you could provide inhibition at 1 µM for each of the following entries.
1. C[C@@H](Oc1ncc(-c2nn3c(C(F)(F)F)nnc3cc2Cl)cc1F)C(F)(F)F
2. CC(C)(Oc1ncc(-c2cn3c(C(F)(F)F)nnc3cn2)cc1F)C(F)(F)F
3. CC(C)(Oc1ncc(-c2ccc3nnc(C4CC4(F)F)n3n2)cc1F)C(F)(F)F (single isomer, unassigned) [11 (Isomer 1)]
4. Cc1cc2nnc(C(F)(F)F)n2nc1-c1cnc(O[C@H](C)C(F)(F)F)c(F)c1
5. Fc1cc(-c2cn3c(C(F)(F)F)nnc3cn2)cnc1OC1CC(F)(F)C1(F)F (single isomer, unassigned) [32 (Isomer 1)]
6. FC(F)c1nnc2cnc(-c3ccc(OC4CC(F)(F)C4)nc3)cn12
7. C[C@H](Oc1ncc(-c2cn3c(C4CC(F)(F)C4)nnc3cn2)cc1F)C(F)(F)F
8. Fc1cc(-c2ccc3nnc(C(F)(F)F)n3n2)cnc1OC1CC(F)(F)C1(F)F (stereo not drawn) [Compound 26]

1: 50 to 75%; 2: > 75%; 3: > 75%; 4: 50 to 75%; 5: > 75%; 6: 50 to 75%; 7: 50 to 75%; 8: > 75%

Below are some compounds; for each one, tell me its inhibition at 1 µM.
1. Cc1c(-c2cnc(O[C@H](C)C(F)(F)F)c(F)c2)ncc2nnc(C(F)(F)F)n12
2. Fc1cc(-c2ccc3nnc(C(F)(F)F)n3n2)cnc1OC1(C(F)(F)F)CCC1

1. 50 to 75%
2. > 75%

From: patent US12344615B2
